- System: Pseudomonas aeruginosa
- measurement.description: Antibacterial activity against Pseudomonas aeruginosa ATCC 27883 incubated for 24 hrs by microtiter plate method
- Type: functional
- study.conditions: Pseudomonas aeruginosa, ATCC 27883, 24 h, read-out: MIC
Square brackets hold non-standard residues; d marks the D form. Peptide text beside a SMILES is read from it. Dip = N[C@H](C(=O)O)C(c1ccccc1)c1ccccc1; 2Nal = N[C@@H](Cc1ccc2ccccc2c1)C(=O)O
observed.property: MIC (µg/mL)
Answers are plain numbers, in µg/mL.

compound	observed.property	display.unit	test.result
N=C(N)NCCC[C@@H]1NC(=O)[C@H](CCCNC(=N)N)NC(=O)[C@H](CCCNC(=N)N)NC(=O)[C@H](C(c2ccccc2)c2ccccc2)NC(=O)[C@H](C(c2ccccc2)c2ccccc2)NC(=O)[C@H](C(c2ccccc2)c2ccccc2)NC(=O)[C@H](CCCNC(=N)N)NC(=O)[C@H](CCCNC(=N)N)NC1=O (cyclo([Dip][Dip][Dip]RRRRR))	MIC	µg/mL	25
N=C(N)NCCC[C@H](NC(=O)[C@H](CCCNC(=N)N)NC(=O)[C@@H](N)CCCNC(=N)N)C(=O)N[C@@H](Cc1ccc2ccccc2c1)C(=O)N[C@@H](Cc1ccc2ccccc2c1)C(=O)N[C@@H](Cc1ccc2ccccc2c1)C(=O)O (H-RRR[2Nal][2Nal][2Nal]-OH)	MIC	µg/mL	25
N=C(N)NCCC[C@H](NC(=O)[C@H](CCCNC(=N)N)NC(=O)[C@@H](N)CCCNC(=N)N)C(=O)N[C@@H](CCCNC(=N)N)C(=O)N[C@H](C(=O)N[C@H](C(=O)N[C@H](C(=O)N[C@H](C(=O)O)C(c1ccccc1)c1ccccc1)C(c1ccccc1)c1ccccc1)C(c1ccccc1)c1ccccc1)C(c1ccccc1)c1ccccc1 (H-RRRR[Dip][Dip][Dip][Dip]-OH)	MIC	µg/mL	50
N=C(N)NCCC[C@H](NC(=O)[C@@H](NC(=O)[C@@H](NC(=O)[C@H](CCCNC(=N)N)NC(=O)[C@H](CCCNC(=N)N)NC(=O)[C@@H](NC(=O)[C@@H](N)CCCNC(=N)N)C(c1ccccc1)c1ccccc1)C(c1ccccc1)c1ccccc1)C(c1ccccc1)c1ccccc1)C(=O)O (H-R[Dip]RR[Dip][Dip]R-OH)	MIC	µg/mL	100
N=C(N)NCCC[C@H](NC(=O)[C@H](CCCNC(=N)N)NC(=O)[C@@H](N)CCCNC(=N)N)C(=O)N[C@@H](CCCNC(=N)N)C(=O)N[C@H](C(=O)N[C@H](C(=O)O)C(c1ccccc1)c1ccccc1)C(c1ccccc1)c1ccccc1 (H-RRRR[Dip][Dip]-OH)	MIC	µg/mL	50
N=C(N)NCCC[C@@H]1NC(=O)[C@H](CCCNC(=N)N)NC(=O)[C@H](CCCNC(=N)N)NC(=O)[C@H](Cc2ccc3ccccc3c2)NC(=O)[C@H](Cc2ccc3ccccc3c2)NC(=O)[C@H](CCCNC(=N)N)NC1=O (cyclo([2Nal][2Nal]RRRR))	MIC	µg/mL	50
N=C(N)NCCC[C@@H]1NC(=O)[C@H](CCCNC(=N)N)NC(=O)[C@H](C(c2ccccc2)c2ccccc2)NC(=O)[C@H](C(c2ccccc2)c2ccccc2)NC(=O)[C@H](C(c2ccccc2)c2ccccc2)NC(=O)[C@H](CCCNC(=N)N)NC1=O (cyclo([Dip][Dip][Dip]RRR))	MIC	µg/mL	12.5
N=C(N)NCCC[C@@H]1NC(=O)[C@H](CCCNC(=N)N)NC(=O)[C@H](CCCNC(=N)N)NC(=O)[C@H](Cc2ccc3ccccc3c2)NC(=O)[C@H](Cc2ccc3ccccc3c2)NC(=O)[C@H](Cc2ccc3ccccc3c2)NC(=O)[C@H](CCCNC(=N)N)NC(=O)[C@H](CCCNC(=N)N)NC1=O (cyclo([2Nal][2Nal][2Nal]RRRRR))	MIC	µg/mL	25
N=C(N)NCCC[C@H](NC(=O)[C@H](CCCNC(=N)N)NC(=O)[C@H](CCCNC(=N)N)NC(=O)[C@H](CCCNC(=N)N)NC(=O)[C@@H](N)CCCNC(=N)N)C(=O)N[C@@H](Cc1ccc2ccccc2c1)C(=O)N[C@@H](Cc1ccc2ccccc2c1)C(=O)N[C@@H](Cc1ccc2ccccc2c1)C(=O)O (H-RRRRR[2Nal][2Nal][2Nal]-OH)	MIC	µg/mL	25
N=C(N)NCCC[C@H](NC(=O)[C@H](CCCNC(=N)N)NC(=O)[C@H](Cc1ccc2ccccc2c1)NC(=O)[C@H](Cc1ccc2ccccc2c1)NC(=O)[C@H](CCCNC(=N)N)NC(=O)[C@@H](N)CCCNC(=N)N)C(=O)N[C@@H](Cc1ccc2ccccc2c1)C(=O)O (H-RR[2Nal][2Nal]RR[2Nal]-OH)	MIC	µg/mL	25

Switching to the query record.
### Prompt Field: MIC (Pseudomonas aeruginosa). Entry: N=C(N)NCCC[C@H](NC(=O)[C@H](CCCNC(=N)N)NC(=O)[C@@H](N)CCCNC(=N)N)C(=O)N[C@@H](CCCNC(=N)N)C(=O)N[C@H](C(=O)N[C@H](C(=O)N[C@H](C(=O)O)C(c1ccccc1)c1ccccc1)C(c1ccccc1)c1ccccc1)C(c1ccccc1)c1ccccc1 (H-RRRR[Dip][Dip][Dip]-OH)
### Response 12.5

Numbers sourced from ChEMBL document CHEMBL5154681.
